system: IL-6 (THP-1 cells); test: IL-6 inhibition in LPS-stimulated THP-1 cells (HTRF); assay type: cell-based; details: Homo sapiens; THP-1 cells, LPS 500 ng/mL, 22 hours, IL6 HTRF
pEC50: −log10 of the molar value.
measured.parameter: pEC50

>  <compound>
CC(C)CC(=O)Nc1cncc(-c2ccc3[nH]nc(-c4cc5c(-c6ccccc6F)ccnc5[nH]4)c3n2)c1 [Compound 58]

>  <pEC50>
7.00

$$$$

P. c1csc(-c2ccnc3[nH]c(-c4n[nH]c5ccc(-c6ccncc6)nc45)cc23)c1 [Compound 354]
Q. FC1(F)CCN(Cc2cncc(-c3ccc4[nH]nc(-c5cc6c(N7CCCCC7)ccnc6[nH]5)c4n3)c2)C1 [Compound 194]
For the two items P and Q , which reports the higher pEC50 value? # respond with the chosen item's label
P
(P: 5.79, Q: 5.16)

* * *

system: Wnt activity (Sp5-Luc reporter, SW480 colon carcinoma cells); assay: Wnt activity screening assay: Sp5-Luc reporter gene assay in SW480 cells; assay type: cell-based; settings: Homo sapiens, at 10 μM, given where EC50 >10 μM, SW480, read-out: percent inhibition at 10 μM
The entries below are paired with their reported inhibition at 10 µM.
Give your result in % as a bare value.

>  <entry.smiles>
Fc1ccc(-c2ccnc3[nH]c(-c4n[nH]c5ccc(-c6cncc(CN7CCC(F)(F)C7)c6)nc45)cc23)cc1

>  <target.system>
Wnt activity (Sp5-Luc reporter, SW480 colon carcinoma cells)

>  <inhibition at 10 µM, %>
10.2

$$$$
>  <entry.smiles>
CN(C)c1cncc(-c2ccc3[nH]nc(-c4cc5c(-c6ccoc6)ccnc5[nH]4)c3n2)c1

>  <target.system>
Wnt activity (Sp5-Luc reporter, SW480 colon carcinoma cells)

>  <inhibition at 10 µM, %>
6.6

$$$$
>  <entry.smiles>
CN(C)CCNc1cc(F)cc(-c2ccnc3[nH]c(-c4n[nH]c5ccc(-c6ccncc6)nc45)cc23)c1

>  <target.system>
Wnt activity (Sp5-Luc reporter, SW480 colon carcinoma cells)

>  <inhibition at 10 µM, %>
8.6

$$$$

State its inhibition at 10 µM for this compound: CN(C)CCOc1cncc(-c2ccc3[nH]nc(-c4cc5c(-c6cccnc6)ccnc5[nH]4)c3n2)c1
7.2

State its inhibition at 10 µM for this compound: c1cc(-c2ccnc3[nH]c(-c4n[nH]c5ccc(-c6cncc(CNCC7CCCC7)c6)nc45)cc23)ccn1
19.5

State its inhibition at 10 µM for this compound: CN(C)Cc1cncc(-c2ccc3[nH]nc(-c4cc5c(N6CCCCC6)ccnc5[nH]4)c3n2)c1
4.1

State its inhibition at 10 µM for this compound: Fc1cccc(-c2ccnc3[nH]c(-c4n[nH]c5ccc(-c6cccnc6)nc45)cc23)c1
47.3

* * *

test system: IL-6 (THP-1 cells); assay: IL-6 inhibition in LPS-stimulated THP-1 cells (HTRF); assay type: cell-based; conditions: Homo sapiens; THP-1 cells, LPS 500 ng/mL, 22 hours, IL6 HTRF
measured.parameter: EC50 (µM)

These recorded examples may help you get a feel for the data.
>  <molecule>
CC(C)Nc1cncc(-c2ccc3[nH]nc(-c4cc5c(-c6cccs6)ccnc5[nH]4)c3n2)c1 [Compound 348]

>  <EC50 (µM)>
1.35

$$$$
>  <molecule>
c1csc(-c2ccnc3[nH]c(-c4n[nH]c5ccc(-c6cncc(OC7CCNCC7)c6)nc45)cc23)c1 [Compound 704]

>  <EC50 (µM)>
0.106

$$$$
>  <molecule>
FC1(F)CCN(Cc2cncc(-c3ccc4[nH]nc(-c5cc6c(-c7cccnc7)ccnc6[nH]5)c4n3)c2)C1 [Compound 110]

>  <EC50 (µM)>
4.93

$$$$
>  <molecule>
c1cnc2[nH]c(-c3n[nH]c4ccc(-c5cncnc5)nc34)cc2c1 [Compound 279]

>  <EC50 (µM)>
0.003

$$$$
>  <molecule>
Cn1cc(-c2ccc3[nH]nc(-c4cc5cccnc5[nH]4)c3n2)cn1 [Compound 652]

>  <EC50 (µM)>
0.046

$$$$

A. c1csc(-c2ccnc3[nH]c(-c4n[nH]c5ccc(-c6cncc(OC7CCCCC7)c6)nc45)cc23)c1 [Compound 703]
B. CN(C)CCNc1cc(F)cc(-c2ccnc3[nH]c(-c4n[nH]c5ccc(-c6cncc(NC(=O)c7ccccc7)c6)nc45)cc23)c1 [Compound 459]
C. CN1CCN(c2ccnc3[nH]c(-c4n[nH]c5ccc(-c6cncc(NC(=O)C(C)(C)C)c6)nc45)cc23)CC1 [Compound 232]
D. CN(C)Cc1cncc(-c2ccc3[nH]nc(-c4cc5c(-c6ccccc6F)ccnc5[nH]4)c3n2)c1 [Compound 69]
E. c1cncc(-c2ccc3[nH]nc(-c4cc5cccnc5[nH]4)c3n2)c1 [Compound 256]
Your job: order these 5 records by EC50, ascending. The reply should contain the labels ordered as requested.
E, B, A, D, C
(E: 0.002 µM, B: 0.009 µM, A: 0.303 µM, D: 1.08 µM, C: 3.43 µM)

* * *

test system: IL-6 (THP-1 cells); assay: IL-6 inhibition in LPS-stimulated THP-1 cells (HTRF); format: cell-based; settings: Homo sapiens; THP-1 cells, LPS 500 ng/mL, 22 hours, IL6 HTRF
The entries below are paired with their reported EC50.

>  <entry.smiles>
c1cc(-c2ccnc3[nH]c(-c4n[nH]c5ccc(-c6cncc(OCCN7CCCC7)c6)nc45)cc23)ccn1

>  <EC50>
> 10 µM

$$$$

State its EC50 for this compound: CN(C)c1cncc(-c2ccc3[nH]nc(-c4cc5c(-c6cccnc6)ccnc5[nH]4)c3n2)c1
> 10 µM

State its EC50 for this compound: Cc1ccncc1-c1ccc2[nH]nc(-c3cc4c(-c5ccc(F)cc5)ccnc4[nH]3)c2n1
> 10 µM

State its EC50 for this compound: O=C(Nc1cncc(-c2ccc3[nH]nc(-c4cc5cccnc5[nH]4)c3n2)c1)C1CCCCC1
0.157 µM

State its EC50 for this compound: Fc1ccccc1-c1ccnc2[nH]c(-c3n[nH]c4ccc(-c5ccccn5)nc34)cc12
0.006 µM

State its EC50 for this compound: Nc1cncc(-c2ccc3[nH]nc(-c4cc5c(-c6ccncc6)ccnc5[nH]4)c3n2)c1
> 10 µM

State its EC50 for this compound: CN(C)CCOc1cncc(-c2ccc3[nH]nc(-c4cc5c(-c6cccnc6)ccnc5[nH]4)c3n2)c1
> 10 µM

State its EC50 for this compound: c1ccc(-c2ccc3[nH]nc(-c4cc5c(N6CCCCC6)ccnc5[nH]4)c3n2)nc1
> 10 µM

State its EC50 for this compound: CC(C)Nc1cncc(-c2ccc3[nH]nc(-c4cc5c(-c6cccnc6)ccnc5[nH]4)c3n2)c1
0.008 µM

State its EC50 for this compound: O=C(Cc1ccccc1)Nc1cncc(-c2ccc3[nH]nc(-c4cc5c(-c6ccoc6)ccnc5[nH]4)c3n2)c1
> 10 µM

State its EC50 for this compound: CCCCC(=O)Nc1cncc(-c2ccc3[nH]nc(-c4cc5c(N6CCCCC6)ccnc5[nH]4)c3n2)c1
0.34 µM

State its EC50 for this compound: CN1CCN(c2ccnc3[nH]c(-c4n[nH]c5ccc(-c6cncc(NC(=O)c7ccccc7)c6)nc45)cc23)CC1
> 10 µM

State its EC50 for this compound: Fc1cccc(-c2ccnc3[nH]c(-c4n[nH]c5ccc(-c6cncc(OCc7ccccc7)c6)nc45)cc23)c1
> 10 µM

State its EC50 for this compound: Fc1cccc(-c2ccnc3[nH]c(-c4n[nH]c5ccc(-c6cccnc6)nc45)cc23)c1
1.84 µM

State its EC50 for this compound: Fc1ccccc1-c1ccnc2[nH]c(-c3n[nH]c4ccc(-c5cncc(CNCc6ccccc6)c5)nc34)cc12
> 10 µM

State its EC50 for this compound: Fc1ccc(-c2ccnc3[nH]c(-c4n[nH]c5ccc(-c6cncnc6)nc45)cc23)cc1
> 10 µM

State its EC50 for this compound: CC(C)CC(=O)Nc1cncc(-c2ccc3[nH]nc(-c4cc5c(N6CCN(C)CC6)ccnc5[nH]4)c3n2)c1
3.27 µM

* * *

tested on: SW480 colon cancer cells; test: Cell viability assay (CellTiter-Blue); assay type: cell-based; conditions: Homo sapiens, 96 h; SW480 cell viability, four days, CellTiter-Blue
measured.parameter: EC50

These recorded examples may help you get a feel for the data.
>  <entry.smiles>
c1cnc2[nH]c(-c3n[nH]c4ccc(-c5cncnc5)nc34)cc2c1

>  <target.system>
SW480 colon cancer cells

>  <EC50>
> 10 µM

$$$$
>  <entry.smiles>
CC(C)Nc1cncc(-c2ccc3[nH]nc(-c4cc5c(-c6cccnc6)ccnc5[nH]4)c3n2)c1

>  <target.system>
SW480 colon cancer cells

>  <EC50>
> 10 µM

$$$$
>  <entry.smiles>
CN1CCN(c2ccnc3[nH]c(-c4n[nH]c5ccc(-c6cncc(NC(=O)c7ccccc7)c6)nc45)cc23)CC1

>  <target.system>
SW480 colon cancer cells

>  <EC50>
3.27 µM

$$$$
>  <entry.smiles>
CN(C)CCNc1cc(F)cc(-c2ccnc3[nH]c(-c4n[nH]c5ccc(-c6cncc(CNCC7CCCC7)c6)nc45)cc23)c1

>  <target.system>
SW480 colon cancer cells

>  <EC50>
2.26 µM

$$$$
>  <entry.smiles>
CN(C)CCNc1cc(F)cc(-c2ccnc3[nH]c(-c4n[nH]c5ccc(-c6ccncc6)nc45)cc23)c1

>  <target.system>
SW480 colon cancer cells

>  <EC50>
> 10 µM

$$$$
>  <entry.smiles>
FC1(F)CCN(Cc2cncc(-c3ccc4[nH]nc(-c5cc6c(N7CCCCC7)ccnc6[nH]5)c4n3)c2)C1

>  <target.system>
SW480 colon cancer cells

>  <EC50>
> 10 µM

$$$$
>  <entry.smiles>
CN1CCN(c2ccnc3[nH]c(-c4n[nH]c5ccc(-c6cncc(NC(=O)C(C)(C)C)c6)nc45)cc23)CC1

>  <target.system>
SW480 colon cancer cells

>  <EC50>
1.44 µM

$$$$

State its EC50 for this compound: c1ncc(-c2ccc3[nH]nc(-c4cc5c(N6CCCCC6)ccnc5[nH]4)c3n2)cn1
> 10 µM
